B1: ZNF263 (parent)
chain: FGGNPRFLSLHRAHLGEEAHKCLE

variants of: B1; assay: protein stability index of a GFP-peptide fusion (GPS, HEK-293T) (PSI 1-6); higher = more stable; details: c terminus: a fixed tail appended;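 also: lentivirally expressed fusions sorted by FACS into six bins by GFP to DsRed ratio, PSI derived from sequencing read proportions per bin multiplied by bin number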
# label = TRUE if protein stability index >= 2 else FALSE

Req: Decide: is the reported value of protein stability index for FGGNKRFLSLHRAHLGEEAHKCLE [P5K] equal to or greater than 2?
Resp: FALSE

Req: Reported protein stability index at or above 2? FGGYPRFLSLHRAHLGEEAHKCLE [N4Y]
Resp: FALSE

Req: Please check the record FGGNPRFLSLHRAHLMEEAHKCLE [G16M] and state if its protein stability index is at or above 2.
Resp: TRUE

Req: Could you please find out whether FGGNPRFLSLHRSHLGEEAHKCLE [A13S] has protein stability index that meets 2 or exceeds it?
Resp: FALSE

Req: Exam item: decide whether the reported protein stability index for FGGNPRFLSLHRAHLGEEAWKCLE [H20W] is at least 2.
Resp: TRUE

Req: Is reported protein stability index greater than or equal to 2 here: FGGNPRFLSLHRAHLGEEAHKCDE [L23D]
Resp: FALSE

Req: Decide: is the reported value of protein stability index for FGGNPRFLSLHRAKLGEEAHKCLE [H14K] equal to or greater than 2?
Resp: FALSE

Req: Test whether the variant FGGNPRFLSLTRAHLGEEAHKCLE [H11T] records protein stability index of 2 or higher.
Resp: TRUE

Req: For this variant, is measured protein stability index 2 or higher? FGGNPRFLSLHRAHLLEEAHKCLE [G16L]
Resp: TRUE

Req: Is it the case that FGGNPRFLSLARAHLGEEAHKCLE [H11A] has protein stability index reaching or exceeding 2?
Resp: FALSE

Req: Determine whether measured protein stability index meets or exceeds 2 for FRGNPRFLSLHRAHLGEEAHKCLE [G2R]
Resp: TRUE

Req: # check: protein stability index of FGGNPRFLLLHRAHLGEEAHKCLE [S9L] is greater than or equal to 2
Resp: TRUE

Req: Hello, I need to know if FGGNIRFLSLHRAHLGEEAHKCLE [P5I] has measured protein stability index not below 2. Thanks!
Resp: FALSE

Req: Could you verify whether the entry FGGNPRFLSGHRAHLGEEAHKCLE [L10G] shows protein stability index of no less than 2?
Resp: FALSE

Req: Quick check, protein stability index >= 2? FGGNPRFNSLHRAHLGEEAHKCLE [L8N]
Resp: TRUE

Req: Does protein stability index meet or surpass 2 for FGGNPRFLSLHRAHLGEEAHKQLE [C22Q] ?
Resp: TRUE

Req: Is protein stability index for FGGQPRFLSLHRAHLGEEAHKCLE [N4Q] at or above 2?
Resp: FALSE

Req: Would you say FGGNPRFLSLHRAHLGEEAHKCLA [E24A] shows protein stability index at minimum 2?
Resp: FALSE

Req: Threshold query (protein stability index >= 2) on FGGNPRFLSLHRAALGEEAHKCLE [H14A]
Resp: FALSE

Req: Would you say FGINPRFLSLHRAHLGEEAHKCLE [G3I] shows protein stability index at minimum 2?
Resp: TRUE

Req: Kindly determine if protein stability index recorded for FGGNPGFLSLHRAHLGEEAHKCLE [R6G] is above or exactly 2.
Resp: FALSE

Req: Would you say FGGNPRFLSLHRAHLGEEAHKCTE [L23T] shows protein stability index at minimum 2?
Resp: TRUE

Req: Reported protein stability index reaches at least 2 for FGGNPRFLSKHRAHLGEEAHKCLE [L10K] ?
Resp: TRUE

Req: protein stability index >= 2 for FGGNPRFLSLHRAHLGEESHKCLE [A19S] ?
Resp: TRUE

Req: Is protein stability index for CGGNPRFLSLHRAHLGEEAHKCLE [F1C] at or above 2?
Resp: TRUE

Req: Record FGGNPRFLSWHRAHLGEEAHKCLE [L10W] ; criterion: protein stability index no lower than 2. Met?
Resp: TRUE

Req: I'd appreciate it if you could say whether FGGNPRFLSLCRAHLGEEAHKCLE [H11C] has protein stability index at least equal to 2.
Resp: TRUE

Req: Does FGGNPCFLSLHRAHLGEEAHKCLE [R6C] have a reported protein stability index of at least 2?
Resp: TRUE

Req: Check if protein stability index >= 2 (inclusive). Item: FGGNPRFLSLHRAHLGEEAHWCLE [K21W]
Resp: FALSE

Req: Determine whether measured protein stability index meets or exceeds 2 for FGVNPRFLSLHRAHLGEEAHKCLE [G3V]
Resp: TRUE

Req: Threshold query (protein stability index >= 2) on FGGNPRFLPLHRAHLGEEAHKCLE [S9P]
Resp: TRUE

Req: Determine whether measured protein stability index meets or exceeds 2 for FGGNPRFLSLHRAHLGEEASKCLE [H20S]
Resp: TRUE

Req: Hi team, for FGGNPRFLSLHRAHLGEEAHKYLE [C22Y] , is the recorded protein stability index at or above 2?
Resp: FALSE

Req: Is protein stability index at least 2? Consider FGGNPRGLSLHRAHLGEEAHKCLE [F7G]
Resp: TRUE

Req: Tell me whether protein stability index is at least 2 here: FGGNYRFLSLHRAHLGEEAHKCLE [P5Y]
Resp: FALSE

Req: Determine whether this variant has protein stability index no lower than 2: FGGNPRFLSLHGAHLGEEAHKCLE [R12G]
Resp: FALSE

Req: hey, is protein stability index for this one >= 2? FGGNPRFLSLHRAHLNEEAHKCLE [G16N]
Resp: FALSE

Req: Quick check: does FGGNCRFLSLHRAHLGEEAHKCLE [P5C] have protein stability index greater than or equal to 2?
Resp: FALSE

Req: Could you tell me if the measured protein stability index of FGGNPRFLSLHRAHLGEVAHKCLE [E18V] reaches 2 or more?
Resp: TRUE

Req: Quick check, protein stability index >= 2? FGGNPRFLSLHRAHLGEEAHKCLS [E24S]
Resp: TRUE

Req: Could you tell me if the measured protein stability index of FGSNPRFLSLHRAHLGEEAHKCLE [G3S] reaches 2 or more?
Resp: TRUE

Req: Form field: protein stability index at least 2? Entry: FGQNPRFLSLHRAHLGEEAHKCLE [G3Q]
Resp: FALSE

Where these numbers come from: the supplement of paper PMC10567573
